Where do the numbers come from? From ChEMBL document CHEMBL1126970.

# reported concentration at 2 h; entries follow
test summary: Bioavailability in rat after 120 minutes at an oral dose of 2.5 mg/kg
Format: ADME, organism-based
measurement conditions: plasma
Give the number; ng/mL is assumed, so skip it.

The cases that follow already have their concentration at 2 h on record.
compound | readout value
Cc1cccc(NC(=O)NC2N=C(c3ccccc3)c3ccccc3N(CCO)C2=O)c1 (racemic) | 95
Cc1cccc(NC(=O)N[C@@H]2N=C(c3ccccc3)c3ccccc3N(C)C2=O)c1 | 194
CN1C(=O)C(NC(=O)Nc2cccc(C(F)(F)F)c2)N=C(c2ccccc2)c2ccccc21 (centres undefined) | 102

Requested field: concentration at 2 h. Item: Cc1cccc(NC(=O)NC2N=C(c3cccnc3)c3ccccc3N(C)C2=O)c1 (racemic)
191
